tgt: mouse Nurr1 receptor (Mus musculus, UniProt Q06219)
Construct: endogenously expressing the mouse Nurr1 receptor
Sequence (Q06219 whole entry): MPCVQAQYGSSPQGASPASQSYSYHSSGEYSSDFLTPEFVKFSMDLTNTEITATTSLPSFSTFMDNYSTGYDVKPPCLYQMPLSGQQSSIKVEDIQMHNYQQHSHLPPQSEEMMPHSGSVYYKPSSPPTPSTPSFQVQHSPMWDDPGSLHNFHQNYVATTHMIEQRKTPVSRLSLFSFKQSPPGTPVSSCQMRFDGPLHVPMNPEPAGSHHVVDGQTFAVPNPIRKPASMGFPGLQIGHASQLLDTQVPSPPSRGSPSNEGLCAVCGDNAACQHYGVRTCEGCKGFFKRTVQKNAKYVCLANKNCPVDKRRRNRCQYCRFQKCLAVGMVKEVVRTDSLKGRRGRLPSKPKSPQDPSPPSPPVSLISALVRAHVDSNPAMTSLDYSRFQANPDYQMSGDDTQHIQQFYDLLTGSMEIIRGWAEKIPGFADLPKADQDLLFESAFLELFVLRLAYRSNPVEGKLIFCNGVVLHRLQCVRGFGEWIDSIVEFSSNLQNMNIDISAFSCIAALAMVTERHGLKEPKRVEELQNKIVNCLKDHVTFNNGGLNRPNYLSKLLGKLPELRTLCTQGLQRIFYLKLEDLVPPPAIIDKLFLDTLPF
assay overview: In vitro activity on N2A cells (NBRE-luciferase reporter)
protocol conditions: N2A cell line endogenously expressing mouse Nurr1, stably transfected with 8NBRE-luciferase; 24 hours incubation
value kind: pEC50
# pEC50: negative log10 of molar concentration; output just the value

[Q] Name the recorded pEC50 of the molecule listed here: CC(C)(O)c1cccc(-c2ccc3nc(-c4ccc(Cl)cc4)cn3c2)c1 [Compound 39]
[A] 9.15

[Q] Name the recorded pEC50 of the molecule listed here: Cc1ccc(-c2cn3cc(-c4cccc(COc5ccc(Cl)cc5)c4)ccc3n2)cc1 [Compound 31]
[A] 7.85

[Q] Name the recorded pEC50 of the molecule listed here: COCCOCc1cccc(-c2ccc3nc(-c4ccc5ccccc5c4)cn3c2)c1 [Compound 17]
[A] 8.44

[Q] Name the recorded pEC50 of the molecule listed here: OCc1ccccc1-c1ccc2nc(-c3ccc(Cl)cc3)cn2c1 [Compound 40]
[A] 9.15
